test.description: Pharmacokinetic test in mice
Type: in vivo, C57 mice
condition.info: mouse, iv; mice, i.v. (1 mg/kg), plasma
Description: 2.1 Experimental animals: Male C57 mice, 20-25 g, 6 mice/compound, purchased from Chengdu Ddossy Experimental Animals Co., Ltd. 2.2 Experimental design: On the day of the experiment, the C57 mice were randomly grouped according to their body weights. The animals were fasted with water available for 12-14 h one day before the administration, and were fed 4 h after the administration. Table 2. Administration information […]
readout: AUC(0-t) (ng·h/mL)
Hi! Could you send only the number? It should be in ng·h/mL, unit omitted.

The following molecules have reported results that may help.
| molecule | observed.result |
| --- | --- |
| Cc1nc(-c2nnn(C)c2CNC(=O)OC2CC(=C(F)F)C2)ccc1OCCC1(C(=O)O)CC1 (centres unmarked) [Compound 47] | 1000 |
| Cc1nc(-c2nnn(C)c2CNC(=O)OC2CC(=C(F)F)C2)ccc1O[C@H]1CCC[C@H](C(=O)O)C1 (some centres unmarked) [Compound 22] | 1570 |
| C=C1CC(N(C)C(=O)OCc2c(-c3ccc(O[C@H]4CCC[C@H](C(=O)O)C4)c(C)n3)nnn2C)C1 [Compound 4] | 510 |
| Cc1nc(-c2nnn(C)c2COC(=O)N(C)C2CC(=C(F)F)C2)ccc1O[C@H]1CCC[C@H](C(=O)O)C1 (some centres unmarked) [Compound 12] | 962 |

Kindly consider the entry below.
Given the molecule C=C1CC(OC(=O)NCc2c(-c3ccc(O[C@H]4CCC[C@H](C(=O)O)C4)c(C)n3)nnn2C)C1 [Compound 26] , what is its reported AUC(0-t)?
1580

---

test.description: Caco2 permeability test
Format: in vitro ADME
condition.info: human, Caco-2 monolayer, 2 hours at 37°C, pH 7.4, read-out: Average apparent permeability coefficient A-B
Protocol: In the experiment, a monolayer of Caco-2 cells was used, and incubated in triplicate in a 96-well Transwell plate. […] The samples were analysed using LC MS/MS, and the concentrations of the compound of the present invention and the control compound were determined. […] The integrity of the cell monolayer after 2 hours of incubation was evaluated by leakage of Lucifer Yellow.
readout: Papp A→B at 2 h, 2 µM (×10⁻⁶ cm/s)
Hi! Could you send only the number? It should be in ×10⁻⁶ cm/s, unit omitted.

Given the compound C=C1CC(OC(=O)NCc2c(-c3ccc(O[C@H]4CCC[C@H](C(=O)O)C4)c(C)n3)nnn2C)C1 [Compound 26] , what is its reported Papp A→B at 2 h, 2 µM?
4.31

---

The entries below come with measured C0 or Cmax values attached.
test.description: Pharmacokinetic test in rats
Assay type: in vivo, SD rats
condition.info: rats, i.v. (1 mg/kg), plasma
Write the figure, then the unit, nothing else.

The following compounds have reported results that may help.
| compound | C0 or Cmax |
| --- | --- |
| C=C1CC(OC(=O)NCc2c(-c3ccc(O[C@H]4CCC[C@H](C(=O)O)C4)c(C)n3)nnn2C)C1 | 2745 ± 354 ng/mL |
| Cc1nc(-c2nnn(C)c2CNC(=O)OC2CC(=C(F)F)C2)ccc1O[C@H]1CCC[C@H](C(=O)O)C1 (stereo partly shown) | 2428 ± 221 ng/mL |
| C=C1CC(N(C)C(=O)OCc2c(-c3ccc(OCC(C)(C)CC(=O)O)c(C)n3)nnn2C)C1 | 2324 ± 170 ng/mL |

Kindly consider the entry below.
Given the compound Cc1nc(-c2nnn(C)c2CNC(=O)OC2CC(=C(F)F)C2)ccc1OCCC1(C(=O)O)CC1 (stereo not shown) , what is its reported C0 or Cmax?
3233 ± 495 ng/mL

---

test.description: Pharmacokinetic test in mice
Assay type: in vivo, C57 mice
condition.info: mouse, iv; mice, i.v. (1 mg/kg), plasma; read-out: Vdss
readout: Vd (L/kg)
Hi! Could you send only the number? It should be in L/kg, unit omitted.

The following molecules have reported results that may help.
| molecule | Vd [L/kg] |
| --- | --- |
| C=C1CC(OC(=O)NCc2c(-c3ccc(O[C@H]4CCC[C@H](C(=O)O)C4)c(C)n3)nnn2C)C1 | 2.83 |
| C=C1CC(N(C)C(=O)OCc2c(-c3ccc(O[C@H]4CCC[C@H](C(=O)O)C4)c(C)n3)nnn2C)C1 | 5.11 |
| Cc1nc(-c2nnn(C)c2CNC(=O)OC2CC(=C(F)F)C2)ccc1O[C@H]1CCC[C@H](C(=O)O)C1 (some centres unmarked) | 2.77 |
| Cc1nc(-c2nnn(C)c2CNC(=O)OC2CC(=C(F)F)C2)ccc1OCCC1(C(=O)O)CC1 (centres unmarked) | 5.4 |

Kindly consider the entry below.
Given the molecule Cc1nc(-c2nnn(C)c2COC(=O)N(C)C2CC(=C(F)F)C2)ccc1O[C@H]1CCC[C@H](C(=O)O)C1 (some centres unmarked) , what is its reported Vd?
2.57

---

The entries below come with measured C0 or Cmax values attached.
test.description: Pharmacokinetic test in mice
Type: in vivo, C57 mice
condition.info: mice, i.g. (3 mg/kg), plasma
Write the figure, then the unit, nothing else.

The following compounds have reported results that may help.
| compound | C0 or Cmax |
| --- | --- |
| C=C1CC(OC(=O)NCc2c(-c3ccc(O[C@H]4CCC[C@H](C(=O)O)C4)c(C)n3)nnn2C)C1 | 659 ± 55 ng/mL |
| Cc1nc(-c2nnn(C)c2COC(=O)N(C)C2CC(=C(F)F)C2)ccc1O[C@H]1CCC[C@H](C(=O)O)C1 (some centres unmarked) | 581 ± 18 ng/mL |
| Cc1nc(-c2nnn(C)c2CNC(=O)OC2CC(=C(F)F)C2)ccc1O[C@H]1CCC[C@H](C(=O)O)C1 (some centres unmarked) | 1788 ± 180 ng/mL |
| C=C1CC(N(C)C(=O)OCc2c(-c3ccc(O[C@H]4CCC[C@H](C(=O)O)C4)c(C)n3)nnn2C)C1 | 687 ± 331 ng/mL |

Given the compound Cc1nc(-c2nnn(C)c2CNC(=O)OC2CC(=C(F)F)C2)ccc1OCCC1(C(=O)O)CC1 (centres unmarked) , what is its reported C0 or Cmax?
566 ± 122 ng/mL

---

The entries below come with measured AUC(0-t) values attached.
test.description: Pharmacokinetic test in rats
Assay type: in vivo, SD rats
condition.info: rat, iv; rats, i.v. (1 mg/kg), plasma
Write the figure, then the unit, nothing else.

The following compounds have reported results that may help.
| compound | AUC(0-t) |
| --- | --- |
| Cc1nc(-c2nnn(C)c2CNC(=O)OC2CC(=C(F)F)C2)ccc1OCCC1(C(=O)O)CC1 (stereo not shown) | 2850 ng·h/mL |
| C=C1CC(OC(=O)NCc2c(-c3ccc(O[C@H]4CCC[C@H](C(=O)O)C4)c(C)n3)nnn2C)C1 | 1870 ng·h/mL |
| Cc1nc(-c2nnn(C)c2CNC(=O)OC2CC(=C(F)F)C2)ccc1O[C@H]1CCC[C@H](C(=O)O)C1 (stereo partly shown) | 1790 ng·h/mL |

Given the compound C=C1CC(N(C)C(=O)OCc2c(-c3ccc(OCC(C)(C)CC(=O)O)c(C)n3)nnn2C)C1 , what is its reported AUC(0-t)?
1090 ng·h/mL

---

test.description: Caco2 permeability test
Format: in vitro ADME
condition.info: human, Caco-2 monolayer, 2 hours at 37°C, pH 7.4
Procedure: In the experiment, a monolayer of Caco-2 cells was used, and incubated in triplicate in a 96-well Transwell plate. […] The samples were analysed using LC MS/MS, and the concentrations of the compound of the present invention and the control compound were determined. […] The integrity of the cell monolayer after 2 hours of incubation was evaluated by leakage of Lucifer Yellow.
readout: efflux ratio at 2 h, 2 µM
Please respond with just the number, no unit label.

Given the molecule C=C1CC(OC(=O)NCc2c(-c3ccc(O[C@H]4CCC[C@H](C(=O)O)C4)c(C)n3)nnn2C)C1 , what is its reported efflux ratio at 2 h, 2 µM?
6.79

---

test.description: Pharmacokinetic test in rats
Assay type: in vivo, SD rats
condition.info: rat, iv; rats, i.v. (1 mg/kg), plasma
readout: clearance (mL/min/kg)
Hi! Could you send only the number? It should be in mL/min/kg, unit omitted.

The following molecules have reported results that may help.
| molecule | observed.result |
| --- | --- |
| C=C1CC(OC(=O)NCc2c(-c3ccc(O[C@H]4CCC[C@H](C(=O)O)C4)c(C)n3)nnn2C)C1 | 8.91 |
| Cc1nc(-c2nnn(C)c2CNC(=O)OC2CC(=C(F)F)C2)ccc1OCCC1(C(=O)O)CC1 (stereo not shown) | 5.95 |
| Cc1nc(-c2nnn(C)c2CNC(=O)OC2CC(=C(F)F)C2)ccc1O[C@H]1CCC[C@H](C(=O)O)C1 (stereo partly shown) | 9.45 |

Kindly consider the entry below.
Given the molecule C=C1CC(N(C)C(=O)OCc2c(-c3ccc(OCC(C)(C)CC(=O)O)c(C)n3)nnn2C)C1 , what is its reported clearance?
15
